Measured growth at 100 µM, listed per entry for reference.
test system: HEK293; test: Induction of cell proliferation of HEK293 cells assessed as proliferation rate at 100 uM measured up to 72 hrs by MTT assay; type: functional; conditions: Homo sapiens, HEK293, 72 h; read-out: Activity

molecule	growth at 100 µM
O=C(O)c1cc(C(=O)C2C(c3cccc(Cl)c3)=NOC2c2cccc(Cl)c2)ccc1O (stereo not given)	42%
COc1ccc(C2ON=C(c3ccc(Cl)cc3)C2C(=O)c2ccc(O)c(C(=O)O)c2)cc1 (stereo not given)	11%
O=C(O)c1cc(C(=O)C2C(c3cccc(Cl)c3)=NOC2c2ccc(Br)cc2)ccc1O (stereo not given)	12%
O=C(O)c1cc(C(=O)C2C(c3ccc(Cl)cc3)=NOC2c2ccc(Br)cc2)ccc1O (stereo not given)	6%
COc1ccc(C2=NOC(c3cccc(Cl)c3)C2C(=O)c2ccc(O)c(C(=O)O)c2)cc1 (stereo not given)	73%
